Attribution: ChEMBL document CHEMBL4346682

Molecular target: Tubulin (Bos taurus) (UniProt Q6B856+Q862L2+Q862F3)
Test: Binding affinity to calf brain tubulin assessed as binding constant incubated for 30 mins in presence of R-PT by fluorescence based method
For each of the compounds below, state its Kb.
Give bare numbers, in ×10⁶ /M.

CC(Nc1ccccc1Oc1ccc(N)cc1)=C1C(=O)CC(c2ccccc2)CC1=O (centres undefined)
11.8

Batch request: Kb for each of the following compounds.
1. COc1ccc(Oc2ccccc2NC(C)=C2C(=O)CC(c3ccccc3)CC2=O)cc1 (centres undefined)
2. CC(Nc1ccccc1Oc1ccccc1)=C1C(=O)CC(c2ccccc2)CC1=O (centres undefined)
3. CCOc1ccccc1NC(C)=C1C(=O)CC(c2ccccc2)CC1=O (centres undefined)
4. CC(Nc1ccccc1Oc1cccc(N)c1)=C1C(=O)CC(c2ccccc2)CC1=O (centres undefined)
5. COc1cc(Oc2ccccc2NC(C)=C2C(=O)CC(c3ccccc3)CC2=O)ccc1N (centres undefined)
6. COc1ccc(Oc2ccccc2NC(C)=C2C(=O)CC(c3ccccc3)CC2=O)cc1OC (centres undefined)
7. CC(Nc1ccccc1Oc1ccc(C(C)O)cc1)=C1C(=O)CC(c2ccccc2)CC1=O (centres undefined)
8. COc1cccc(Oc2ccccc2NC(C)=C2C(=O)CC(c3ccccc3)CC2=O)c1 (centres undefined)

1. 5.23
2. 6.46
3. 13
4. 5.56
5. 18.1
6. 2.24
7. 3.13
8. 15.7
